assay: Single dose clinical study Part B: CSF Compound A pharmacokinetics; format: in vivo; settings: human, CSF, oral; single doses (50 to 400 mg except 50 mg; b332: 100 to 400 mg); read-out: median CSF tmax across doses
test.readout: Tmax

INPUT: In one line, give reported Tmax of the entry COc1ncc(C)c(-c2ccc3c(c2)[nH]c(=O)c2cnn([C@H]4CCOC4)c23)c1C .
OUTPUT: 4.37 to 6.87 h

* * *

Assay: Single dose clinical study: plasma Compound A pharmacokinetics
Format: in vivo, human
Settings: human, plasma, po, 100 mg, plasma, Non-Japanese Subjects (Parts A,B), single oral 100 mg; read-out: t1/2 Mean (SD) (converted)
Experimental: This was a single center, single dose, randomized, double blind, placebo controlled study in healthy subjects. It consisted of 4 parts: Parts A, B, C, and D. Each of the four study parts had 2 phases: Prerandomization Phase and Randomization Phase. The Prerandomization Phase lasted up to 30 days and consisted of a Screening Period and a Baseline Period, during which each subject's study eligibility was determined and baseline assessments were performed. […]
test.readout: half-life (h)
Answers are plain numbers, in h.

INPUT: Hello, please tell me recorded half-life for this one: COc1ncc(C)c(-c2ccc3c(c2)[nH]c(=O)c2cnn([C@H]4CCOC4)c23)c1C
OUTPUT: 28.6

All figures here come from patent US20220378706A1.
